Provide the reported total protein half-life in vivo of each item.
- TEST_NAME: total protein half-life in vivo (active degradation + dilution); higher = more stable protein
- REPORTED_CONDITIONS: wild type E. coli NCM3722; growth: N-lim chemostat; doubling time 12 h
Answer format reminder: number followed by unit.

Parameter requested: total protein half-life in vivo. Apply to each item below.
1. MRNLVKYVGIGLLVMGLAACDDKDTNATAQGSVAESNATGNPVNLLDGKLSFSLPADMTDQSGKLGTQANNMHVWSDATGQKAVIVIMGDDPKEDLAVLAKRLEDQQRSRDPQLQVVTNKAIELKGHKMQQLDSIISAKGQTAYSSVILGNVGNQLLTMQITLPADDQQKAQTTAENIINTLVIQ [P0AEE1]
2. MSESVQSNSAVLVHFTLKLDDGTTAESTRNNGKPALFRLGDASLSEGLEQHLLGLKVGDKTTFSLEPDAAFGVPSPDLIQYFSRREFMDAGEPEIGAIMLFTAMDGSEMPGVIREINGDSITVDFNHPLAGQTVHFDIEVLEIDPALEA [P0AEM0]
3. MWLLDQWAERHIAEAQAKGEFDNLAGSGEPLILDDDSHVPPELRAGYRLLKNAGCLPPELEQRREAIQLLDILKGIRHDDPQYQEVSRRLSLLELKLRQAGLSTDFLRGDYADKLLDKINDN

["10.9 h", "5.91 h", "12.3 h"]

The recorded total protein half-life in vivo for `MANWQSIDELQDIASDLPRFIHALDELSRRLGLNITPLTADHISLRCHQNATAERWRRGFEQCGELLSENMINGRPICLFKLHEPVQVAHWQFSIVELPWPGEKRYPHEGWEHIEIVLPGDPETLNARALALLSDEGLSLPGISVKTSSPKGEHERLPNPTLAVTDGKTTIKFHPWSIEEIVASEQSA` is 3.66 h

###

- TEST_NAME: total protein half-life in vivo (active degradation + dilution); higher = more stable protein
- REPORTED_CONDITIONS: E. coli NCM3722 delta-smpB; growth: N-lim chemostat; doubling time 6 h
Provide the reported total protein half-life in vivo of each item.
Answers are plain numbers, in h.

MRQTKTGILLANLGTPDAPTPEAVKRYLKQFLSDRRVVDTSRLLWWPLLRGVILPLRSPRVAKLYASVWMEGGSPLMVYSRQQQQALAQRLPEMPVALGMSYGSPSLESAVDELLAEHVDHIVVLPLYPQFSCSTVGAVWDELARILARKRSIPGISFIRDYADNHDYINALANSVRASFAKHGEPDLLLLSYHGIPQRYADEGDDYPQRCRTTTRELASALGMAPEKVMMTFQSRFGREPWLMPYTDETLKMLGEKGVGHIQVMCPGFAADCLETLEEIAEQNREVFLGAGGKKYEYIPALNATPEHIEMMANLVAAYR : 5.63
MVAPIPAKRGRKPAVATAPATGQVQSLTRGLKLLEWIAESNGSVALTELAQQAGLPNSTTHRLLTTMQQQGFVRQVGELGHWAIGAHAFMVGSSFLQSRNLLAIVHPILRNLMEESGETVNMAVLDQSDHEAIIIDQVQCTHLMRMSAPIGGKLPMHASGAGKAFLAQLSEEQVTKLLHRKGLHAYTHATLVSPVHLKEDLAQTRKRGYSFDDEEHALGLRCLAACIFDEHREPFAAISISGPISRITDDRVTEFGAMVIKAAKEVTLAYGGMR : 5.35
MNYRIIPVTAFSQNCSLIWCEQTRLAALVDPGGDAEKIKQEVDDSGLTLMQILLTHGHLDHVGAAAELAQHYGVPVFGPEKEDEFWLQGLPAQSRMFGLEECQPLTPDRWLNEGDTISIGNVTLQVLHCPGHTPGHVVFFDDRAKLLISGDVIFKGGVGRSDFPRGDHNQLISSIKDKLLPLGDDVIFIPGHGPLSTLGYERLHNPFLQDEMPVW : 3.17
MRNKPFYLLCAFLWLAVSHALAADSTITIRGYVRDNGCSVAAESTNFTVDLMENAAKQFNNIGATTPVVPFRILLSPCGNAVSAVKVGFTGVADSHNANLLALENTVSAASGLGIQLLNEQQNQIPLNAPSSALSWTTLTPGKPNTLNFYARLMATQVPVTAGHINATATFTLEYQ : 5.58
MTKLKLLALGVLIATSAGVAHAEGKFSLGAGVGVVEHPYKDYDTDVYPVPVINYEGDNFWFRGLGGGYYLWNDATDKLSITAYWSPLYFKAKDSGDHQMRHLDDRKSTMMAGLSYAHFTQYGYLRTTLAGDTLDNSNGIVWDMAWLYRYTNGGLTVTPGIGVQWNSENQNEYYYGVSRKESARSGLRGYNPNDSWSPYLELSASYNFLGDWSVYGTARYTRLSDEVTDSPMVDKSWTGLISTGITYKF [P0A908] : 5.96

From here, focus on the item given below.
The recorded total protein half-life in vivo for MRHIFQRLLPRRLWLAGLPCLALLGCVQNHNKPAIDTPAEEKIPVYQLADYLSTECSDIWALQGKSTETNPLYWLRAMDCADRLMPAQSRQQARQYDDGSWQNTFKQGILLADAKITPYERRQLVARIEALSTEIPAQVRPLYQLWRDGQALQLQLAEERQRYSKLQQSSDSELDTLRQQHHVLQQQLELTTRKLENLTDIERQLSTRKPAGNFSPDTPHESEKPAPSTHEVTPDEP [P0AD44] is 6.12

###

- TEST_NAME: total protein half-life in vivo (active degradation + dilution); higher = more stable protein
- REPORTED_CONDITIONS: wild type E. coli NCM3722; growth: N-lim chemostat; doubling time 12 h
Provide the reported total protein half-life in vivo of each item.
Give bare numbers, in h.

Here is how some sequences turned out for total protein half-life in vivo.
MIDDDGYRPNVGIVICNRQGQVMWARRFGQHSWQFPQGGINPGESAEQAMYRELFEEVGLSRKDVRILASTRNWLRYKLPKRLVRWDTKPVCIGQKQKWFLLQLVSGDAEINMQTSSTPEFDGWRWVSYWYPVRQVVSFKRDVYRRVMKEFASVVMSLQENTPKPQNASAYRRKRG [P0A776] : 11.9
MIEWQDLHHSELSVSQLYALLQLRCAVFVVEQNCPYQDIDGDDLTGDNRHILGWKNDELVAYARILKSDDDLEPVVIGRVIVSEALRGEKVGQQLMSKTLETCTHHWPDKPVYLGAQAHLQNFYQSFGFIPVTEVYEEDGIPHIGMAREVIQA [P0AEH3] : 3.85
MKKFAAVIAVMALCSAPVMAAEQGGFSGPSATQSQAGGFQGPNGSVTTVESAKSLRDDTWVTLRGNIVERISDDLYVFKDASGTINVDIDHKRWNGVTVTPKDTVEIQGEVDKDWNSVEIDVKQIRKVNP [P0ADU5] : 11.8

From here, focus on the item given below.
The recorded total protein half-life in vivo for `MTPTIELICGHRSIRHFTDEPISEAQREAIINSARATSSSSFLQCSSIIRITDKALREELVTLTGGQKHVAQAAEFWVFCADFNRHLQICPDAQLGLAEQLLLGVVDTAMMAQNALIAAESLGLGGVYIGGLRNNIEAVTKLLKLPQHVLPLFGLCLGWPADNPDLKPRLPASILVHENSYQPLDKGALAQYDEQLAEYYLTRGSNNRRDTWSDHIRRTIIKESRPFILDYLHKQGWATR` is 7.96

###

- TEST_NAME: total protein half-life in vivo (active degradation + dilution); higher = more stable protein
- REPORTED_CONDITIONS: E. coli NCM3722 delta-hslV; growth: N-lim chemostat; doubling time 6 h
Could you label it Condition met if measured total protein half-life in vivo is 6 h or higher, and Condition not met otherwise?

MKTIHDIRRSNARKLRDGVGGNSSFATMIDREPTQTSRFMGDGATKNIGDSMARHIEKCFDLPVGWLDQEHQTTNITKKPDVSITNKQITLVPVISWVQAGAWKEVGYSEVDLSTAETYPCPVPCGEMTYILRVIGDSMIDEYRPGDMIFVDPEVPACHGDDVIALMHDTGETTFKRLIEDGTQRYLKALNPNWPEPYIKINGNCSIIGTVIFSGKPRRYKIKA : Condition not met

Reported total protein half-life in vivo at or above 6 h? `MLIIETLPLLRQQIRRLRMEGKRVALVPTMGNLHDGHMKLVDEAKARADVVVVSIFVNPMQFDRPEDLARYPRTLQEDCEKLNKRKVDLVFAPSVKEIYPNGTETHTYVDVPGLSTMLEGASRPGHFRGVSTIVSKLFNLVQPDIACFGEKDFQQLALIRKMVADMGFDIEIVGVPIMRAKDGLALSSRNGYLTAEQRKIAPGLYKVLSSIADKLQAGERDLDEIITIAGQELNEKGFRADDIQIRDADTLLEVSETSKRAVILVAAWLGDARLIDNKMVELA`
Condition not met

Reported total protein half-life in vivo at or above 6 h? `MSAGRLNKKSLGIVMLLSVGLLLAGCSGSKSSDTGTYSGSVYTVKRGDTLYRISRTTGTSVKELARLNGISPPYTIEVGQKLKLGGAKSSSITRKSTAKSTTKTASVTPSSAVPKSSWPPVGQRCWLWPTTGKVIMPYSTADGGNKGIDISAPRGTPIYAAGAGKVVYVGNQLRGYGNLIMIKHSEDYITAYAHNDTMLVNNGQSVKAGQKIATMGSTDAASVRLHFQIRYRATAIDPLRYLPPQGSKPKC`
Condition met

Reported total protein half-life in vivo at or above 6 h? MNEQSQAKSPEALRAMVAGTLANFQHPTLKHNLTTLKALHHVAWMDDTLHVELVMPFVWHSAFEELKEQCSAELLRITGAKAIDWKLSHNIATLKRVKNQPGINGVKNIIAVSSGKGGVGKSSTAVNLALALAAEGAKVGILDADIYGPSIPTMLGAENQRPTSPDGTHMAPIMSHGLATNSIGYLVTDDNAMVWRGPMASKALMQMLQETLWPDLDYLVLDMPPGTGDIQLTLAQNIPVTGAVVVTTPQDIALIDAKKGIVMFEKVEVPVLGIVENMSVHICSNCGHHEPIFGTGGAEKLAEKYHTQLLGQMPLHISLREDLDKGTPTVISRPESEFTAIYRQLADRVAAQLYWQGEVIPGEISFRAV [P0AF08]
Condition not met
